Just for reference, PubChem BioAssay (NCI) is where these values come from.

System: NCI/ADR-RES ovarian
Experiment: NCI-60 one-dose screen, 48 h
Settings: 10 µM unless noted
Compounds without any hit were thinned out: in the full panel of roughly 83,000, 20% have a hit. Activity calls are given as the source filed them. Rule for the calls: active = growth percent below 10; inactive = the rest.
Pick one: active, inactive

Some solved cases for reference:
Compound | Category
Cc1c(C)n(CC(O)CNC2CCCCC2C)c2ccccc12 (centres undefined) | active
COc1ccccc1-n1c(SCc2cc(OC)c(OC)c(OC)c2)nc2ccc(Cl)cc2c1=O | inactive

q: Would you mind telling me which call this test gave CC(C)OC1=C(Cl)C(=O)c2ccccc2C1=O ?
a: inactive

q: # repeat for COc1c(Cl)ccc2c(-c3nc4cc(Cl)c(F)cc4s3)cc(=O)oc12
a: inactive

q: # repeat for Cc1cc(NS(=O)(=O)c2ccc(NC(=O)COc3ccc(-c4cc5ccccc5[nH]4)cc3)cc2)no1
a: active

q: # repeat for COc1cc(/C=C/C(=O)CC(=O)/C=C/c2cc(Br)c(OC)c(OC)c2)cc(Br)c1OC
a: inactive

q: # repeat for COc1ccc(/C=C(\C#N)c2cc3ccccc3n2C)cc1
a: active

q: # repeat for CCCCCCCCCCCCSC1=CC(=O)C=CC1=O
a: inactive

q: # repeat for O=S(=O)(Nc1ccccc1Cl)c1ccc(-c2cnc(C3CC3)o2)cc1
a: active

q: # repeat for O=C(Nc1ccccc1)Oc1cccc2cccnc12
a: inactive
